Tested on: Leucine-rich repeat serine/threonine-protein kinase 2 (Homo sapiens), Q5S007 [G2019S]
Sequence (Q5S007 whole entry G2019S): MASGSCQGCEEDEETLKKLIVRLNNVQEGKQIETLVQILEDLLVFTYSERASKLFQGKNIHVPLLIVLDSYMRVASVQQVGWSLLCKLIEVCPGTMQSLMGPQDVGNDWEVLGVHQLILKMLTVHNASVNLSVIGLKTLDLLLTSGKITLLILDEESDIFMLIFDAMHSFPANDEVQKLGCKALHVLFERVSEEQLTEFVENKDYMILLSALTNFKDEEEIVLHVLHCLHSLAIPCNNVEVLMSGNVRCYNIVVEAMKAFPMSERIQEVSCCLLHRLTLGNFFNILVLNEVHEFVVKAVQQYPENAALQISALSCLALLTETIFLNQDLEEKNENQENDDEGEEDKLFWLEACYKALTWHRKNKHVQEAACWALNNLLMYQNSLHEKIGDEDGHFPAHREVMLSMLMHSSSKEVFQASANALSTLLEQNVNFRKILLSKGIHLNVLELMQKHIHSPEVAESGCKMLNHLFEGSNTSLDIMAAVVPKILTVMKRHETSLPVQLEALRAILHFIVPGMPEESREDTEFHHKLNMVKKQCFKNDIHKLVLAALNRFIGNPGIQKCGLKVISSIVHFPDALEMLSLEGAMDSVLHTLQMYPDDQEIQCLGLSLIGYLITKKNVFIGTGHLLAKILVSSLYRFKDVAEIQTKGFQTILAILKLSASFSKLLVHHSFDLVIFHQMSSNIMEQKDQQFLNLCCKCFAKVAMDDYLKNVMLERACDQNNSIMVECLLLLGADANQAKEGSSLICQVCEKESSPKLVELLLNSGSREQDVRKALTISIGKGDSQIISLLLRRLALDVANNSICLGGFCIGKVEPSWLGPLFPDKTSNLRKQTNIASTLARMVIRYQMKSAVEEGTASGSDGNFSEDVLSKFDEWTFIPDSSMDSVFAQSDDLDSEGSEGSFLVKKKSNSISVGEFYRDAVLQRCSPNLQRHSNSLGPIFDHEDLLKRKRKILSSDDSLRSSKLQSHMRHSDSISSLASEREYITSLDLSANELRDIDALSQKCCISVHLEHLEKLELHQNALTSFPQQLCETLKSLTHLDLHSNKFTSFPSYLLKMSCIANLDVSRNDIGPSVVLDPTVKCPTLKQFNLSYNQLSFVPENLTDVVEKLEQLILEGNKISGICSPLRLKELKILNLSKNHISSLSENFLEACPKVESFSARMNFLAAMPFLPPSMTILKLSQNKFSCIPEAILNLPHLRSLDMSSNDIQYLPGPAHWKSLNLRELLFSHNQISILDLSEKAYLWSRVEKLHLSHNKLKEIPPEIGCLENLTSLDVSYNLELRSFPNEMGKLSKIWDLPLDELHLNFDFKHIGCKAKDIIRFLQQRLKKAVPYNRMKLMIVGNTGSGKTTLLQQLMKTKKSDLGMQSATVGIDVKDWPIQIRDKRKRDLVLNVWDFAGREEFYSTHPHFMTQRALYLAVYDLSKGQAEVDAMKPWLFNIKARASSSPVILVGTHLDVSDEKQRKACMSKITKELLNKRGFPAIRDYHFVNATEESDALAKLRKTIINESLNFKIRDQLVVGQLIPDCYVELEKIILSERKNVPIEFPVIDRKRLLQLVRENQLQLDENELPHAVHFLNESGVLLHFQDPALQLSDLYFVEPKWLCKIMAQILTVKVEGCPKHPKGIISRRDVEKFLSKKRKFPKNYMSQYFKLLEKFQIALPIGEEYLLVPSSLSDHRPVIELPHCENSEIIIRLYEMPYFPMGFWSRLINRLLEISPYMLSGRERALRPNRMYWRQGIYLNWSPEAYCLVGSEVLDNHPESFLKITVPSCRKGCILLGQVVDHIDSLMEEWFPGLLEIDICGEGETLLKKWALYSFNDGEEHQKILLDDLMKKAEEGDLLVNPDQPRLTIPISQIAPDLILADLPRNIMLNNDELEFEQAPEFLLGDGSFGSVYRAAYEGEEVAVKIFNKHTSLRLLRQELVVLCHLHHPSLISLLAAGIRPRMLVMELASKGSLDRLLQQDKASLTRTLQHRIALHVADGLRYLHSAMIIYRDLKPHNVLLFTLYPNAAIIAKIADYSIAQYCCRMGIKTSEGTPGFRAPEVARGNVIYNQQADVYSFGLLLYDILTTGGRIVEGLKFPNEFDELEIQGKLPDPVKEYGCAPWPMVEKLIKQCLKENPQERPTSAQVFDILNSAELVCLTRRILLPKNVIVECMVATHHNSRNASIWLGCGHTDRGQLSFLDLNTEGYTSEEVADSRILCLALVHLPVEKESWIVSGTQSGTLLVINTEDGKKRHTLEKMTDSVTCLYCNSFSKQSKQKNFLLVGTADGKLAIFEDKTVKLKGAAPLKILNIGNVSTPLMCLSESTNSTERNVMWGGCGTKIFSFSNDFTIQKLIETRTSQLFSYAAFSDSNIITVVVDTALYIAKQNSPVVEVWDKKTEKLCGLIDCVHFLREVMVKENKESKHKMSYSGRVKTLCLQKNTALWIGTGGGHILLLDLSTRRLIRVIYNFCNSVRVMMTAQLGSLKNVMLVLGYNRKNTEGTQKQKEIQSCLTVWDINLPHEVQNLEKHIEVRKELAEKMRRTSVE
Conditions: at 0.1 µM

smiles.entry: NC(=O)c1ccc2c(-c3ccnc(NCCCO)n3)c(-c3ccc(F)cc3)nn2c1
inhibition / %: 6.54
--
smiles.entry: CC1(C)CC(n2cnc(-c3ccc(F)cc3)c2-c2ccnc(N)n2)CC(C)(C)N1
inhibition / %: 2.37
--
smiles.entry: c1ccc(-c2n[nH]cc2-c2ccnc(-c3ccc(OCCn4ccnc4)cc3)c2)nc1
inhibition / %: 3.12
--
smiles.entry: COc1cccc(Nc2nccc(-c3cnn4ncccc34)n2)c1
inhibition / %: 13.3
--
smiles.entry: COc1cc(N2CCN(C(C)C)CC2)ccc1Nc1nc(Nc2cccc3ncccc23)c2cc[nH]c2n1
inhibition / %: 24.5
--
smiles.entry: CN(C)CCNC(=O)Nc1ccc(N(C)c2ccnc(Nc3ccc(CS(C)(=O)=O)cc3)n2)cc1
inhibition / %: 6.1
--
smiles.entry: N#Cc1cccc(Nc2ncc(-c3ccccc3)o2)c1
inhibition / %: 1.64
--
smiles.entry: Cc1nnc(-c2cccc(-c3ccc(C(=O)NCC4CC4)cc3)c2)o1
inhibition / %: 4.33
--
smiles.entry: O=C(O[C@H]1CN[C@H](C#Cc2cc3ncnc(Nc4ccc5c(ccn5Cc5cc(F)ccc5F)c4)c3s2)C1)N1CCOCC1
inhibition / %: 3.23
--
smiles.entry: Fc1cccc(COc2ccc(Nc3ncncc3C#Cc3ccccc3)cc2Cl)c1
inhibition / %: 4.05

====

Molecular target: Ribosomal protein S6 kinase alpha-4 (Homo sapiens);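 also: values are mean inhibition of MSK2, from GSK PKIS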
Conditions: at 0.1 µM

compound: O=C(O[C@H]1CN[C@H](C#Cc2cc3ncnc(Nc4ccc5c(ccn5Cc5cc(F)ccc5F)c4)c3s2)C1)N1CCOCC1
reading.unit: %
inhibition: 2.95
--
compound: CC1=C(C(=O)Nc2ccc3[nH]ncc3c2)C(c2ccc(F)cc2)N=C(c2ccc(C(F)(F)F)nc2)N1 (centres undefined)
reading.unit: %
inhibition: 2.12
--
compound: Fc1ccc(Nc2nccc(-c3c(-c4ccc(C(F)(F)F)cc4)nn4ncccc34)n2)cc1F
reading.unit: %
inhibition: -0.61
--
compound: CCS(=O)(=O)c1ccc(OC)c(Nc2ncc(-c3cccc(F)c3)o2)c1
reading.unit: %
inhibition: 4.36

====

# inhibition per record follows
Molecular target: Protein kinase C eta type (Homo sapiens) (UniProt P24723);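 also: value is the mean inhibition, from GSK PKIS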
Sequence (P24723 whole entry): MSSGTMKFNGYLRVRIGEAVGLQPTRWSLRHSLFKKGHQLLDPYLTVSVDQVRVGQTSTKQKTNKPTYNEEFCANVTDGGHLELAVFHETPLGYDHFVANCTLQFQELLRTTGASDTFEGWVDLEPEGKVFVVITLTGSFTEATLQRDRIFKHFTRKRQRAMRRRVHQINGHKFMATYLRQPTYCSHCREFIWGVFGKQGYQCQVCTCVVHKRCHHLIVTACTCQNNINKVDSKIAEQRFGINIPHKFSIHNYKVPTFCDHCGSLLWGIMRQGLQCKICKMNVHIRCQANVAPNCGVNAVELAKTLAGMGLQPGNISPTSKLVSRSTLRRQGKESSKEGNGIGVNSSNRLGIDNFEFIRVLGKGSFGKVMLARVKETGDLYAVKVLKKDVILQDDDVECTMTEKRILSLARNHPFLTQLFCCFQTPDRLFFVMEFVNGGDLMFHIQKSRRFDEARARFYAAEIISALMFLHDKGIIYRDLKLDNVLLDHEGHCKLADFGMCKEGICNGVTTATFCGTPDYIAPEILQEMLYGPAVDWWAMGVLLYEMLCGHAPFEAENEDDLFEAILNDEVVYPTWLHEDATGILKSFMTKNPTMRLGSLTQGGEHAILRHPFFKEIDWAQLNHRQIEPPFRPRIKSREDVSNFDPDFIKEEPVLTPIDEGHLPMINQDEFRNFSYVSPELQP
Settings: at 1 µM
observable: inhibition (%)

molecule: Cc1nnc(-c2cccc(-c3ccc(C(=O)NCC4CC4)cc3)c2)o1
observable: inhibition
reading.unit: %
result: 6.75
--
molecule: COc1c(C(N)=O)cc(-c2ccc(Cl)cc2)cc1-c1ccc(S(N)(=O)=O)cc1
observable: inhibition
reading.unit: %
result: 5.18
--
molecule: COc1cc2c(cc1Nc1nc(Nc3cccc(F)c3C(N)=O)c3cc[nH]c3n1)N(C(=O)CN1CCN(C(C)C)CC1)CC2
observable: inhibition
reading.unit: %
result: 1.37
--
molecule: COC(=O)Nc1nc2cc(Oc3ccc(NC(=O)Nc4ccccc4)cc3)ccc2[nH]1
observable: inhibition
reading.unit: %
result: 6.1
--
molecule: COc1cc(N2CCN(C(C)C)CC2)ccc1Nc1nc(Nc2cccc3ncccc23)c2cc[nH]c2n1
observable: inhibition
reading.unit: %
result: -3.36
--
molecule: COc1cc(N2CCN(C(C)C)CC2)ccc1Nc1nc(Nc2cccc(F)c2C(=O)O)c2cc[nH]c2n1
observable: inhibition
reading.unit: %
result: 4.16
--
molecule: CC1=C(C(=O)Nc2ccc3[nH]ncc3c2)C(c2ccc(F)cc2)N=C(c2ccc(C(F)(F)F)nc2)N1 (centres undefined)
observable: inhibition
reading.unit: %
result: 2.1
--
molecule: CS(=O)(=O)CCNCc1ccc(-c2ccc3ncnc(Nc4ccc(OCc5cccc(C(F)(F)F)c5)cc4)c3c2)o1
observable: inhibition
reading.unit: %
result: 4.9
--
molecule: Fc1cccc(COc2ccc(Nc3ncncc3C#Cc3ccccc3)cc2Cl)c1
observable: inhibition
reading.unit: %
result: 4.62
